details: cynomolgus monkey, in vivo, sc, 40 mg/kg
As shown below, each of these substances has a reported Spleen weight value.
Field format: number, assumed g, no unit text.

substance: TGATTTAATGGTTGCA [ISIS 569213] (cEt/MOE gapmer chemistry, further chemistry not given here)
result unit: g
number: 5.3

substance: ISIS 583918: antisense compound targeted to human AR (AGTCGCGACTCTGGTA; 3-10-3 (S)-cEt gapmer, further chemistry not given here)
result unit: g
number: 4.6

substance: ISIS 584468: antisense compound targeted to human AR (CATTGTACTATGCCAG; 3-10-3 (S)-cEt gapmer, further chemistry not given here)
result unit: g
number: 4.1

substance: ISIS 584269: antisense compound targeted to human AR (CCTTATGGATGCTGCT; 3-10-3 (S)-cEt gapmer, further chemistry not given here)
result unit: g
number: 4.7

substance: TGATTTAATGGTTGCA [ISIS 569236] (cEt/MOE gapmer chemistry, further chemistry not given here)
result unit: g
number: 3.2

Now let's try a different one.
Exercise: Give the value of Spleen weight reported for the following: GATTTAATGGTTGCAA (cEt gapmer chemistry, further chemistry not given here) [ISIS 586124]
Key: 3.3

---

system: AR mRNA; experiment: AR mRNA in LnCaP cells by free uptake (hAR_LTS00943); type: cell-based, human; settings: 0.02 μM, 24 hrs
Oligonucleotides are written 5' to 3', each unit as a sugar letter and its base; * is a phosphorothioate linkage, no mark a phosphodiester; rarer units and linkages stand in square brackets, end groups in braces. Plain capitals give the bases only. k = constrained ethyl (cEt); [5mC] = 5-methylcytosine; d = 2'-deoxy (DNA)
As shown below, each of these substances has a reported Percent inhibition of AR mRNA value.
Field format: number, assumed %, no unit text.

Exercise: Give the value of Percent inhibition of AR mRNA reported for the following: 584269 (k[5mC]*k[5mC]*kT*dT*dA*dT*dG*dG*dA*dT*dG*d[5mC]*dT*kG*k[5mC]*kT) [compound 584269]
Key: 0

Exercise: Give the value of Percent inhibition of AR mRNA reported for the following: 584163 (kG*kA*kA*d[5mC]*dA*dT*dT*dA*dT*dT*dA*dG*dG*k[5mC]*kT*kA) [compound 584163]
Key: 0

Exercise: Give the value of Percent inhibition of AR mRNA reported for the following: 549458 (kG*kT*kT*dG*dA*dT*dT*dT*dA*dA*dT*dG*dG*kT*kT*kG) [compound 549458]
Key: 4

---

tested on: AR mRNA; assay: Dose-dependent antisense inhibition of human AR in HuVEC cells (electroporation, qRT-PCR RTS3559, IC50); type: cell-based; settings: Table 32; 750.0 nM, HuVEC, electroporation, approximately 16 hours
Oligonucleotides are written 5' to 3', each unit as a sugar letter and its base; * is a phosphorothioate linkage, no mark a phosphodiester; rarer units and linkages stand in square brackets, end groups in braces. Plain capitals give the bases only. k = constrained ethyl (cEt); [5mC] = 5-methylcytosine; d = 2'-deoxy (DNA)
As shown below, each of these substances has a reported percent inhibition of AR, 750.0 nM value.
Field format: number, assumed %, no unit text.

Check out these entries, answers already filled in.
substance: 583797 (antisense kT*k[5mC]*kG*dG*dA*dT*dA*d[5mC]*dT*dG*d[5mC]*dT*dT*k[5mC]*k[5mC]*kT) [compound 583797]
number: 74
//
substance: 583749 (antisense kA*kG*kG*dT*dG*d[5mC]*dT*dG*d[5mC]*dG*d[5mC]*dT*d[5mC]*kG*k[5mC]*kG) [compound 583749]
number: 75
//
substance: 583881 (k[5mC]*k[5mC]*kT*dT*dT*dG*dG*dT*dG*dT*dA*dA*d[5mC]*k[5mC]*kT*k[5mC]; antisense) [compound 583881]
number: 85
//
substance: 583835 (kG*kA*kA*dG*d[5mC]*dT*dG*dT*dT*d[5mC]*d[5mC]*d[5mC]*d[5mC]*kT*kG*kG; antisense) [compound 583835]
number: 74
//
substance: 583759 (antisense kG*k[5mC]*kT*dG*dT*dT*d[5mC]*d[5mC]*dT*d[5mC]*dA*dT*d[5mC]*k[5mC]*kA*kG) [compound 583759]
number: 61

Exercise: Give the value of percent inhibition of AR, 750.0 nM reported for the following: 583880 (kT*kT*kT*dG*dG*dT*dG*dT*dA*dA*d[5mC]*d[5mC]*dT*k[5mC]*k[5mC]*k[5mC]; antisense) [compound 583880]
Key: 78

Exercise: Give the value of percent inhibition of AR, 750.0 nM reported for the following: 583855 (k[5mC]*k[5mC]*kT*dT*dT*dG*d[5mC]*dA*dT*dT*d[5mC]*dG*dG*k[5mC]*k[5mC]*kA; antisense) [compound 583855]
Key: 81

Exercise: Give the value of percent inhibition of AR, 750.0 nM reported for the following: 583871 (kA*kT*kA*d[5mC]*dT*d[5mC]*dA*dG*d[5mC]*dA*dG*dT*dA*kT*k[5mC]*kT; antisense) [compound 583871]
Key: 68

---

As shown below, each of these sequences has a reported Percent inhibition of cell proliferation value.
Test system: C4-2B cells
Experiment: C4-2B cell proliferation by free uptake (MTT)
Format: cell-based, human
Conditions: dose 5.00 μM, day 6
Protocol: Cells were plated at a concentration of 1,000 cells/well in 96-well plates to measure cell proliferation, and at 4,000 cells/well to measure target reduction. […] After an incubation period of 24 hrs, mRNA levels were measured using hAR_LTS00943. On day 6, cells plated for measuring proliferation were incubated with MTT reagent until the development of color. Color intensity was measured using a spectrophotometer at 490 nm.
Oligonucleotides are written 5' to 3', each unit as a sugar letter and its base; * is a phosphorothioate linkage, no mark a phosphodiester; rarer units and linkages stand in square brackets, end groups in braces. Plain capitals give the bases only. k = constrained ethyl (cEt); [5mC] = 5-methylcytosine; d = 2'-deoxy (DNA)
Field format: number, assumed %, no unit text.

record sequence: CTAAACTTCCCGTGGC (k[5mC]*kT*kA*dA*dA*d[5mC]*dT*dT*d[5mC]*d[5mC]*d[5mC]*dG*dT*kG*kG*k[5mC]) [ISIS 549434, targets 3'-end of exon 8]
result unit: %
Percent inhibition of cell proliferation: 37

record sequence: GTTGATTTAATGGTTG (all phosphorothioate, sugars by position not given here; further chemistry not fully specified) [ISIS 549458]
result unit: %
Percent inhibition of cell proliferation: 41

record sequence: AAGTTGTAGTAGTCGC (kA*kA*kG*dT*dT*dG*dT*dA*dG*dT*dA*dG*dT*k[5mC]*kG*k[5mC]) [ISIS 549372, targets exon 1]
result unit: %
Percent inhibition of cell proliferation: 45

Now let's try a different one.
Exercise: Give the value of Percent inhibition of cell proliferation reported for the following: ACCAAGTTTCTTCAGC (LNA gapmer, phosphorothioate backbone, further chemistry not given here) [ISIS 554221, 3-10-3 LNA gapmer, phosphorothioate backbone, targeted to exon 4 of AR; benchmark, reference compound]
Key: 30

---

As shown below, each of these substances has a reported percent inhibition of AR value.
tested on: AR mRNA; assay: Dose-dependent antisense inhibition of human AR in HuVEC cells (electroporation, qRT-PCR RTS3559, IC50); type: cell-based; settings: 1000.0 nM; HuVEC, ~16 h; Table 8
Oligonucleotides are written 5' to 3', each unit as a sugar letter and its base; * is a phosphorothioate linkage, no mark a phosphodiester; rarer units and linkages stand in square brackets, end groups in braces. Plain capitals give the bases only. e = 2'-O-(2-methoxyethyl) (MOE); k = constrained ethyl (cEt); [5mC] = 5-methylcytosine; d = 2'-deoxy (DNA)
Field format: number, assumed %, no unit text.

Check out these entries, answers already filled in.
substance: 560137 (antisense TTGATTTAATGGTTGC; all C 5-methyl, all phosphorothioate, sugars by position not given here; further chemistry not fully specified) [compound 560137]
reported endpoint: percent inhibition of AR
number: 94
//
substance: 560098 (kT*kG*kA*dT*dT*dT*dA*dA*dT*dG*dG*dT*dT*kG*k[5mC]*kA; further chemistry not given here) [compound 560098]
reported endpoint: percent inhibition of AR
number: 97

Exercise: Give the observed percent inhibition of AR of 569236 (antisense eT*kG*kA*kT*dT*dT*dA*dA*dT*dG*dG*kT*kT*kG*e[5mC]*eA) [compound 569236] for AR mRNA.
Key: 92

Exercise: Give the observed percent inhibition of AR of 569216 (antisense eT*kG*kA*kT*dT*dT*dA*dA*dT*dG*dG*dT*kT*kG*k[5mC]*eA) [compound 569216] for AR mRNA.
Key: 96

Exercise: Give the observed percent inhibition of AR of 560131 (antisense kT*kT*kG*dA*dT*dT*dT*dA*dA*dT*dG*dG*kT*kT*kG*e[5mC]) [compound 560131] for AR mRNA.
Key: 97

Exercise: Give the observed percent inhibition of AR of 569222 (antisense eT*eT*kG*kA*kT*dT*dT*dA*dA*dT*dG*dG*dT*kT*kG*k[5mC]) [compound 569222] for AR mRNA.
Key: 98
